Reference source: patent US20030083336A1

System Tested: human cloned dopamine D4.2 receptors (Homo sapiens, UniProt P21917, DEL265-296)
Construct: expressed in transfected cells; host or cells: CHO cells
Sequence (P21917 with tags, fused parts or gaps DEL265-296): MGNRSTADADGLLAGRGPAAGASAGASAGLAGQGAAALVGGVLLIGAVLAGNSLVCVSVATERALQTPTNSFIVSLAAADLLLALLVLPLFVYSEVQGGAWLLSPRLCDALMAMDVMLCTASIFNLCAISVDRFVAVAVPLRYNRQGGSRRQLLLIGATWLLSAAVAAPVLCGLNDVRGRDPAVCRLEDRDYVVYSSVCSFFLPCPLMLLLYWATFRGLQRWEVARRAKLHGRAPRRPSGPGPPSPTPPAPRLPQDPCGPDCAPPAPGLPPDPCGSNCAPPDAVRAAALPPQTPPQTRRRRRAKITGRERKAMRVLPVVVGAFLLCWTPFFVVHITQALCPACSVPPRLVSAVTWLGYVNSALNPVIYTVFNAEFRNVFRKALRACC
Assay Text: Inhibition of the binding of 3H-YM-09151-2 to human dopamine D4 receptors
Run Parameters: [3H]YM-09151-2 0.06 nM, membranes of CHO-cells; read-out: D4-bind. IC50
Reported Property: IC50

[[record]]
compound = "Cc1c(Oc2cccc(N(C)C)c2)cccc1N1CCN(CCCc2c[nH]c3ccc(Cl)cc23)CC1"
result = "57 nM"

[[record]]
compound = "CCN(CC)c1cccc(Oc2cccc(N3CCN(CCCc4c[nH]c5ccccc45)CC3)c2C)c1"
result = "35 nM"

[[record]]
compound = "Cc1c(Oc2ccc3c(c2)OCO3)cccc1N1CCN(CCCc2c[nH]c3ccc(F)cc23)CC1"
result = "43 nM"

[[record]]
compound = "Cc1c(Oc2ccc3c(c2)OCO3)cccc1N1CCN(CCCc2c[nH]c3ccccc23)CC1"
result = "35 nM"

[[record]]
compound = "CCN(CC)c1cccc(Oc2cccc(N3CCN(CCCc4c[nH]c5ccc(Cl)cc45)CC3)c2C)c1"
result = "5.5 nM"

[[record]]
compound = "CCN(CC)c1cccc(Oc2cccc(N3CCN(CCCc4c[nH]c5ccc(F)cc45)CC3)c2C)c1"
result = "5.4 nM"

[[record]]
compound = "Cc1c(Oc2cccc(N(C)C)c2)cccc1N1CCN(CCCc2c[nH]c3ccc(F)cc23)CC1"
result = "37 nM"

[[record]]
compound = "COc1cc(Oc2cccc(N3CCN(CCCc4c[nH]c5ccc(Cl)cc45)CC3)c2C)cc(OC)c1OC"
result = "10 nM"

